assayed system: S protein of SARS-CoV-2 BetaCoV/Korea/KCDC03/2020 (614D, S형) (SARS-CoV-2, UniProt P0DTC2 14-1273)
test description: cell-based or functional assay
measured quantity: IC50, PRNT (µg/mL)
Could you give me the number in µg/mL? Just the number is fine.

Example cases with answers are listed next.
binder	IC50, PRNT, µg/mL
No. 218 항체 (Full IgG) (antibody, V domains shown) VH: QVQLVQSGGGVVQPGRSLRLSCAASGFTFSSFAMHWVRQAPGKGLEWVAVISFDGSNKYYADSVKGQFTISRDNSKNTLYLQMNSLRAEDTAVYYCARGDYYGSGSYYNPSPFFDYWGQGTLVTVSS VL: ELELTQPPSVSGTPGQRVSISCSGSTSNIGSNPVNWFQQLPGTAPKLLIYSNNQRPSGVPNRFSGSKSGTSASLAISGLQSDDEADYYCAAWDDSLNGWVFGGGTKVTVL	0.562
No. 152 항체 (Full IgG) (antibody, V domains shown) VH: QITLKESGPSLVKPSQTLTLTCTFSGFSLTTSGMGVGWIRQPPGKALEWLALIDWDDNKYYTTSLKTRLTISKDTSKNQVVLTMTNMDPVDTATYYCARIPGFLRYRNRYYYYGMDVWGQGTTVTVSS VL: ELVLTQPPSVSAAPGQKVTISCSGRSSNIGNNYVSWYQQLPGTAPKLLIYDNNKRPSGIPDRFSGSKSGTSATLGITGLQTGDEADYYCGTWDSSLSAGVFGGGTQLTVL	0.0062
No. 274 항체 (Full IgG) (antibody, V domains shown) VH: EVQLVESGGGLVQPGGSLRLSCAASGFTVSSNYMTWVRQAPGKGLEWVSVIYSGGSTFYADSVKGRFTISRDNSKNTLYLQMNSLRAEDTAVYYCARDLVVYGMDVWGQGTTVTVSS VL: ELELTQPPSVSGAPGQRVTISCTGSSSNIGAGYDVHWYQQLPGTAPKLLIYGNSNRPSGVPDRFSGSKSGTSASLAITGLQAEDEADYYCQSYDSSLGVVFGGGTKVTVL	0.301

Consider the binder shown here: No. 281 항체 (Full IgG) (antibody, V domains shown) VH: QVQLVQSGGGLVQPGGSLRLSCAASGITVSSNYMSWVRQAPGKGLEWVSVIYSGGSTNYADSVKGRFTISRDNSKNTLYLQMNSLRAEDTAVYYCARDLIVYGMDVWGQGTTVTVSS VL: ELVLTQPPSVSGAPGQRVTISCTGSSSNIGAGYDVHWYQQLPGTAPKLLIYGNSNRPSGVPDRFSGSKSGTSASLAITGLQAEDEADYYCAAWDDSLSGWVFGGGTKVTVL What is its recorded IC50, PRNT?
1.43
